- ASSAY TARGET: UniProt:Q14416
- Sequence (Q14416 whole entry): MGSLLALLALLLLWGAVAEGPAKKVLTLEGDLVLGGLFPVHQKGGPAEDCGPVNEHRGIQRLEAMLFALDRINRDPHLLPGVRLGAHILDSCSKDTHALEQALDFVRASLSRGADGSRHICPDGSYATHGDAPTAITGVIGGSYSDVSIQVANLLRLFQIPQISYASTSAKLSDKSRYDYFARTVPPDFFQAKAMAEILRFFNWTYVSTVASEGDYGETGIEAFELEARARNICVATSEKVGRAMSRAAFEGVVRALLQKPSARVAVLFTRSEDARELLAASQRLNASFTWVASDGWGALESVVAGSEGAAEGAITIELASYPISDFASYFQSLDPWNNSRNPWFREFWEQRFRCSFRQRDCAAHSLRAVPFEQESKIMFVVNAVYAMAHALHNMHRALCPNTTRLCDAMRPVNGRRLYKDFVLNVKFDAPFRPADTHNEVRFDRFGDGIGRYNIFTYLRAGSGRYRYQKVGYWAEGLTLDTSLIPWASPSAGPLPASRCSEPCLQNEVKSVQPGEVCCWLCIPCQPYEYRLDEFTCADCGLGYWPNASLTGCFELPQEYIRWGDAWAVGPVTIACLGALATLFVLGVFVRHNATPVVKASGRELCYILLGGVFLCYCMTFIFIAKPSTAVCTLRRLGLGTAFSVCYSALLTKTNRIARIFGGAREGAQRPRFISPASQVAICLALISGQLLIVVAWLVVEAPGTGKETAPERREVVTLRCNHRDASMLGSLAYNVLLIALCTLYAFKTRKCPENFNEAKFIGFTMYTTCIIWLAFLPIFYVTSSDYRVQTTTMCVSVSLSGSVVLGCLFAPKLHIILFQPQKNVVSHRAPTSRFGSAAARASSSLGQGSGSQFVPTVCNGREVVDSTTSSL
- PROCEDURE SUMMARY: Concentration required to inhibit mGluR2 receptor
PARAMETER MEASURED: EC50 (µM)

> print(dat)
                                   compound  obs.value
1  N[C@H](C(=O)O)C12C3C4C1C1C2C3C41C(=O)O (stereo partly specified)       54.9
